Give IC50 for every item shown.
- Test Target: PI3Kβ (Homo sapiens, UniProt P42338)
- Sequence (P42338 whole entry): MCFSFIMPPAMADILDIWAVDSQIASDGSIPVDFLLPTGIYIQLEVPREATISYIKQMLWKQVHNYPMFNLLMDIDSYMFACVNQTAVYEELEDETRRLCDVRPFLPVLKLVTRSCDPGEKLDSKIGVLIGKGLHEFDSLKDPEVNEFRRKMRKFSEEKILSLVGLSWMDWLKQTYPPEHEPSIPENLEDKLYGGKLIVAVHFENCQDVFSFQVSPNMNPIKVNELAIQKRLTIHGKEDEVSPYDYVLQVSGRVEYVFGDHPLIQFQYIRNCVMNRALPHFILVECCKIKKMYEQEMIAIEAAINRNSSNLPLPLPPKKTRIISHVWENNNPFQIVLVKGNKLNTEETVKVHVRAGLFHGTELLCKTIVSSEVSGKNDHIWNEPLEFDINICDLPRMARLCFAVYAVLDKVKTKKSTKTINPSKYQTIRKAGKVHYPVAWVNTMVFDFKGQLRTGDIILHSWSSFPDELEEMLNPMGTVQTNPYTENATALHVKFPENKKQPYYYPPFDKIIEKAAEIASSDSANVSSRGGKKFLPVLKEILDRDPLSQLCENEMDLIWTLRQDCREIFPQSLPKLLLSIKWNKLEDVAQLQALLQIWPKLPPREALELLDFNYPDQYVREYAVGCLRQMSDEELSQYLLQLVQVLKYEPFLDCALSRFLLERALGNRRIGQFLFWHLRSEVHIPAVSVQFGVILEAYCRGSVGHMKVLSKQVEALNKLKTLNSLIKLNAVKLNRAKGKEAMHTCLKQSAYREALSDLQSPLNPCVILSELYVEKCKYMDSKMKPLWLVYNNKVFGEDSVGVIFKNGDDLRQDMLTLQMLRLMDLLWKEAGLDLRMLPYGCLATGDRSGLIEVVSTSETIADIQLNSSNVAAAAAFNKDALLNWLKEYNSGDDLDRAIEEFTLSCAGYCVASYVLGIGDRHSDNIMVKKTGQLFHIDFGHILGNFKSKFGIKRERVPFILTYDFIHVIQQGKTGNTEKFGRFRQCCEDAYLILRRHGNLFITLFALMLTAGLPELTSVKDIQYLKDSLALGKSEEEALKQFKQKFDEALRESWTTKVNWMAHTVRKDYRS
- Sequence (P27986 whole entry partner): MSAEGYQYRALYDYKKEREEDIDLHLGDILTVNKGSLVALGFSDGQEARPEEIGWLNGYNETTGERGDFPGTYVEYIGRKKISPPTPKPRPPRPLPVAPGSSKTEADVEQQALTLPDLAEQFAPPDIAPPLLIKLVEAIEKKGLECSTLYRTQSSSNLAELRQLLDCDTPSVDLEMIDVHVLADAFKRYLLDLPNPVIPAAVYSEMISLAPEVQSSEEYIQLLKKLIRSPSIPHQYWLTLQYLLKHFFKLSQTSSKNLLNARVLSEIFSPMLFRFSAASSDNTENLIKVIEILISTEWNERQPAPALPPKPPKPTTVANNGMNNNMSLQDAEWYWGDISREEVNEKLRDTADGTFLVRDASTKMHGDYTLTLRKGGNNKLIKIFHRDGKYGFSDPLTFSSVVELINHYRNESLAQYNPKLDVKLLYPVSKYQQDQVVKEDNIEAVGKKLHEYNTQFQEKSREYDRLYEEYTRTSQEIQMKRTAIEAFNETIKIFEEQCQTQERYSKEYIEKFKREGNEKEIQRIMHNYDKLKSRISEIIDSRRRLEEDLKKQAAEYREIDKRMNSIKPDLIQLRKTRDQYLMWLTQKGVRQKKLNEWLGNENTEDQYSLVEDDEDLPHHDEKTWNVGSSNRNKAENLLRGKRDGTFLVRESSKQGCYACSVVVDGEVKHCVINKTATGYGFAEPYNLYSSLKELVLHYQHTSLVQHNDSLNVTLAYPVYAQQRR
- Experiment Notes: In vitro determination of the PI3K enzyme inhibitory activity in the cell free assay (ADP-Glo Kinase Assay), PI3Kβ
- Condition Summary: ATP 100 μM, read-out: PI3K beta inhibition

CC(Nc1ncnc(N)c1CO)c1cc2ccccn2c1-c1ccccn1 (stereo not drawn) | > 1000 nM
CC(c1cc2ccccn2c1-c1csc(CN2CCOCC2)n1)n1nc(-c2cc(O)cc(F)c2)c2c(N)ncnc21 (stereo not drawn) | 10 to 1000 nM
c1ccc(-c2c(CNc3ncnc4[nH]cnc34)cc3ccccn23)nc1 | > 1000 nM
CC(c1cc2ccccn2c1-c1ccc(CN2CCCC2)cn1)n1nc(-c2cc(O)cc(F)c2)c2c(N)ncnc21 (stereo not drawn) | 10 to 1000 nM
C[C@@H](c1cc2ccccn2c1-c1ccncc1)n1nc(-c2cc(O)cc(F)c2)c2c(N)ncnc21 (single isomer, unassigned) [Example 83] | 10 to 1000 nM
CC(c1cc2ccccn2c1-c1ccccn1)n1nc(-c2cccc(CO)c2)c2c(N)ncnc21 (stereo not drawn) | > 1000 nM
CC(c1cc2ccccn2c1CN1CCC2(CCN(C)CC2)CC1)n1nc(-c2cc(O)cc(F)c2)c2c(N)ncnc21 (stereo not drawn) | 10 to 1000 nM
CC(c1cc2ccccn2c1-c1ccc(CN2CCN(C)CC2)cn1)n1nc(-c2cc(O)cc(F)c2)c2c(N)ncnc21 (stereo not drawn) | 10 to 1000 nM
CC(c1cc2ccccn2c1-c1ccccn1)n1nc(-c2ccc(O)c(F)c2)c2c(N)ncnc21 (stereo not drawn) | > 1000 nM
CC(c1cc2ccccn2c1-c1ccccc1F)n1nc(-c2cc(O)cc(F)c2)c2c(N)ncnc21 (stereo not drawn) | > 1000 nM

For every record below, what is its IC50?
1. Nc1ncnc2c1ncn2Cc1cc2ccccn2c1-c1ccccc1
2. Cc1cc(-c2c(C(C)n3nc(-c4cc(O)cc(F)c4)c4c(N)ncnc43)cc3ccccn23)ccn1 (stereo not drawn)
3. CC(c1cc2ccccn2c1-c1ccn(CCN(CCO)CCO)n1)n1nc(-c2cc(O)cc(F)c2)c2c(N)ncnc21 (stereo not drawn)

> 1000 nM
10 to 1000 nM
10 to 1000 nM

For every record below, what is its IC50?
1. Cc1ccccc1-c1c(CNc2ncnc(N)c2C#N)cc2ccccn12
2. CC(c1cc2ccccn2c1-c1ccc(OCCN2CCN(C)CC2)nn1)n1nc(-c2cc(O)cc(F)c2)c2c(N)ncnc21 (stereo not drawn)
3. CC(c1cc2ccccn2c1-c1ccccn1)n1nc(-c2ccccc2)c2c(N)ncnc21 (stereo not drawn)
4. Cc1ccccc1-c1c(Cn2cnc(N)c3ncnc2-3)cc2ccccn12
5. N#Cc1c(N)ncnc1NCc1cc2ccccn2c1-c1ccccn1

1. > 1000 nM
2. 10 to 1000 nM
3. > 1000 nM
4. > 1000 nM
5. > 1000 nM

The measurements presented in this section are drawn from patent US9527869B2.
